- Study system: His-His-(EK)-hsBCLXL(2-197)[N197C] (Homo sapiens (Human), UniProt Q07817, N197C)
- Sequence (Q07817 2-197 N197C): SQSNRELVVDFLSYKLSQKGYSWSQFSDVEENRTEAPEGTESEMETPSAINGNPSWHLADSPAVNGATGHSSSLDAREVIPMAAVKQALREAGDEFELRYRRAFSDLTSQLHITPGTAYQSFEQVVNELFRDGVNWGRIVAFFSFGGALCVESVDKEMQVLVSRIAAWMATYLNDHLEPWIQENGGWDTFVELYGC
- Assay details: Fluorescence quenching assay
- Protocol conditions: 1 nM Cy5-labelled protein, 400 nM PUMA peptide, 2 hours at 23° C.; KI determined from IC50
Record form. Attribute: Ki. Fill in for each entry.

Cc1c(Nc2nc3ccccc3s2)nnc2c1CCCN2c1ccc(-c2cnn(CC34CC5(C)CC(C)(C3)CC(OCCNCCCCO)(C5)C4)c2C)c(C(=O)O)n1 [Example 132] : 2 pM

Your task in this section: give Ki for each listed record.
1. Cc1c(Nc2nc3ccccc3s2)nnc2c1CCCN2c1nc(C(=O)O)c(CCCOc2ccc(C#CCN3CCN(C)CC3)cc2F)s1 [Example 48]
2. Cc1c(Nc2nc3ccccc3s2)nnc2c1CCCN2c1nc(C(=O)O)c(CCCOc2ccc(I)cc2F)s1 [Example 77]
3. COCCCN(C)CCOC12CC3(C)CC(C)(CC(Cn4ncc(-c5ccc(N6CCCc7c6nnc(Nc6nc8ccccc8s6)c7C)nc5C(=O)O)c4C)(C3)C1)C2 [Example 151]

Marked response:
1. 1.6 pM
2. 170 pM
3. 1.5 pM

The reported measurements were obtained from patent US12570648B2.
